study_target: UniProt Q9UNQ0
Sequence (Q9UNQ0 whole entry): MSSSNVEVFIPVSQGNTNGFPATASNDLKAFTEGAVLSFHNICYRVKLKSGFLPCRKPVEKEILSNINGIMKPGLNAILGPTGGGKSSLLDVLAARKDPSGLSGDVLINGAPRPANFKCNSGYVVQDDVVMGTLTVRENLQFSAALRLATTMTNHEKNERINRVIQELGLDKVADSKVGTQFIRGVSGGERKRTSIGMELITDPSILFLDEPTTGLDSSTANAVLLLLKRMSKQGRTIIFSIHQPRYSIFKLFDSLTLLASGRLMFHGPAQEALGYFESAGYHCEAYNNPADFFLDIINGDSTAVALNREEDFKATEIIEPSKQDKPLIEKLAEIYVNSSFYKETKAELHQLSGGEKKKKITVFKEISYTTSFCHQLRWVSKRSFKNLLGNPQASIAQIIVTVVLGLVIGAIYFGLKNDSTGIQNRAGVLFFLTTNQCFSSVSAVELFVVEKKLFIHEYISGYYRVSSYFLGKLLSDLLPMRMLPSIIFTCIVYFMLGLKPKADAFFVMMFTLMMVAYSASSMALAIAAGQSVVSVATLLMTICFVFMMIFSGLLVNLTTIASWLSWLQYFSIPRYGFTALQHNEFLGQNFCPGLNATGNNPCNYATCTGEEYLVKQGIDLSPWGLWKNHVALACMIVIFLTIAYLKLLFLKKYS
measurement_notes: Inhibition of BCRP (unknown origin) expressed in dog MDCK-II cells using pheophorbide A as substrate preincubated for 20 mins followed by substrate addition and measured after 120 mins by flow cytometry analysis
Assay type: cell-based
measured_parameter: pIC50
Just the number, please; pIC50 means minus log10 of the concentration in mol/L.

Take a look at these entries with their results.
sample_smiles=c1ccc(N2CCN(c3ncnc4c3[nH]c3ccccc34)CC2)cc1 assay_result=5.96
sample_smiles=N#Cc1c2n(c3c(N4CCN(CCc5ccncc5)CC4)ncnc13)CCCCC2 assay_result=4.91
sample_smiles=c1ccc(C(c2ccccc2)N2CCN(c3ncnc4c3[nH]c3ccccc34)CC2)cc1 assay_result=5.86
sample_smiles=c1ccc(N2CCN(c3ncnc4c3[nH]c3ccccc34)CC2)nc1 assay_result=5.74
sample_smiles=N#Cc1c2n(c3c(N4CCN(CCc5ccncc5)CC4)ncnc13)CCCC2 assay_result=4.56
sample_smiles=O=C(c1ccco1)N1CCN(c2ncnc3c2[nH]c2ccccc23)CC1 assay_result=5.22

query: Give me measured pIC50, please, for this molecule: N#Cc1c2n(c3c(N4CCN(C(=O)c5ccco5)CC4)ncnc13)CCCC2
result: 4.53

query: Give me measured pIC50, please, for this molecule: N#Cc1cn(CCc2ccccc2)c2c(N3CCN(CCc4c[nH]c5ccccc45)CC3)ncnc12
result: 5.86

query: Give me measured pIC50, please, for this molecule: N#Cc1c2n(c3c(N4CCN(CCc5c[nH]c6ccccc56)CC4)ncnc13)CCCC2
result: 5.47

query: Give me measured pIC50, please, for this molecule: c1ccc(CCN2CCN(c3ncnc4c3[nH]c3ccccc34)CC2)cc1
result: 6.08
